experimentalTarget: HDAC6 (Homo sapiens (Human), UniProt Q9UBN7)
protocolNotes: HDAC in vitro enzymatic assay (fluorescence)
Type: biochemical
experimentalConditions: top concentration 2 μM; read-out: IC50 values for inhibition of HDAC6
reportedMetric: IC50 (nM)
Value expressed in nM; do not type the unit.

O=C(NO)c1ccc2nc(-c3ccc(-c4ccc(/C=N/O)cc4)cc3)[nH]c2c1
11
COc1c(C)cc(-c2nc3cc(C(=O)NO)ccc3n2C)cc1C
3.5
O=C(NO)c1ccc2nc(-c3ccccc3C(F)(F)F)[nH]c2c1
77

Record O=C(NO)c1ccc2nc(-c3cccc(Br)c3)[nH]c2c1 . Reported IC50: 12

Record Cn1c(-c2nc3ccc(C(=O)NO)cc3[nH]2)cc2ccccc21 . Reported IC50: 15
